# key: entry, value: LD50
# Tested on: Dermatophagoides farinae
# Test method notes: Acaricidal activity against Dermatophagoides farinae after 24 hr by fabric disk assay
# Format: functional
Parameter measured: LD50 (microg/cm2)

> print(dat)
                                   compound              study.system  value
1  CCN(CC)C(=O)c1cccc(C)c1 [DIETHYLTOLUAMIDE]  Dermatophagoides farinae  37.59
2  CC=Cc1ccc(O)c(OC)c1 (mixture of isomers) [CIS/TRANS-ISOEUGENOL]  Dermatophagoides farinae   5.17
3  C=CCc1ccc(OC(C)=O)c(OC)c1 [EUGENYL ACETATE]  Dermatophagoides farinae  14.16
4             C=CCc1ccc(O)c(OC)c1 [EUGENOL]  Dermatophagoides farinae   5.47
5  O=C(OCc1ccccc1)c1ccccc1 [BENZYL BENZOATE]  Dermatophagoides farinae   9.22
